Below, each entry is listed alongside its reported MIC.
test system: Escherichia coli; test: microbe, parasite or virus in culture; type: functional; details: TOP10
Description: Antibacterial activity against Escherichia coli TOP10 harboring recombinant p6S3 expressing beta lactamase OXA-114a by agar dilution method

compound_structure: CCN1CCN(C(=O)N[C@@H](C(=O)N[C@@H]2C(=O)N3[C@@H]2SC(C)(C)[C@@H]3C(=O)O)c2ccccc2)C(=O)C1=O
MIC [µg/mL]: 4

compound_structure: CC1(C)S[C@@H]2[C@H](NC(=O)[C@H](N)c3ccc(O)cc3)C(=O)N2[C@H]1C(=O)O
MIC [µg/mL]: 16

compound_structure: CO/N=C(\C(=O)N[C@@H]1C(=O)N2C(C(=O)O)=C(COC(C)=O)CS[C@H]12)c1csc(N)n1
MIC [µg/mL]: 0.25

compound_structure: CO[C@@]1(NC(=O)Cc2cccs2)C(=O)N2C(C(=O)O)=C(COC(N)=O)CS[C@@H]21
MIC [µg/mL]: 4

compound_structure: CO/N=C(\C(=O)N[C@@H]1C(=O)N2C(C(=O)[O-])=C(C[N+]3(C)CCCC3)CS[C@H]12)c1csc(N)n1
MIC [µg/mL]: 0.12

compound_structure: CC(C)(O/N=C(\C(=O)N[C@@H]1C(=O)N2C(C(=O)[O-])=C(C[n+]3ccccc3)CS[C@H]12)c1csc(N)n1)C(=O)O
MIC [µg/mL]: 0.06

compound_structure: CC1(C)S[C@@H]2[C@H](NC(=O)[C@H](C(=O)O)c3ccsc3)C(=O)N2[C@H]1C(=O)O
MIC [µg/mL]: 4
